Test system: NCI-H187
Test: Cell response to LSD1 inhibition, SCLC cell line cultured 4 days (Example 5)
Assay type: cell-based, human
Conditions: Homo sapiens, 96 h, NCI-H187, SubType C, read-out: EC50
Structures can show the parent of a compound that is named as a salt.
measured-parameter: EC50

Quote EC50 with test system NCI-H187 for N[C@H]1CC[C@H](N[C@@H]2C[C@H]2c2ccccc2)CC1 [bis-hydrochloride] 0.136 nM

====

Tested on: SBC-5
Test: Cell response to LSD1 inhibition, SCLC cell line cultured 4 days (Example 5)
Type: cell-based, human
Conditions: Homo sapiens, 96 h, SBC-5, SubType (V), read-out: Sensitivity to LSD1 inh.
pEC50: −log10 of the molar value. Structures can show the parent of a compound that is named as a salt.
measured-parameter: pEC50

Provide pEC50 value for the following compound: N[C@H]1CC[C@H](N[C@@H]2C[C@H]2c2ccccc2)CC1 [bis-hydrochloride] ≤ 7.30

====

Tested on: NCI-H146
Assay: Cell response to LSD1 inhibition, SCLC cell line cultured 4 days (Example 5)
Type: cell-based, human
Settings: Homo sapiens, 96 h, NCI-H146, SubType C, read-out: Sensitivity to LSD1 inh.
Source text: As a positive control for cytotoxicity the Hsp90 inhibitor 17-N-allylamino-17-demethoxygeldanamycin (17-AAG, a geldanamycin analogue) was used as positive control in serial dilution.
Counter-ions that a name gives are not always drawn.
measured-parameter: EC50

Supply EC50 value. Item: N[C@H]1CC[C@H](N[C@@H]2C[C@H]2c2ccccc2)CC1 [bis-hydrochloride] < 50 nM

====

System: NCI-H187
Assay: Cell response to LSD1 inhibition, SCLC cell line cultured 4 days (Example 5)
Type: cell-based, human
Conditions: Homo sapiens, 96 h, NCI-H187, SubType C, read-out: Sensitivity to LSD1 inh.
Structures can show the parent of a compound that is named as a salt.
measured-parameter: EC50

Specify measured EC50 for N[C@H]1CC[C@H](N[C@@H]2C[C@H]2c2ccccc2)CC1 [bis-hydrochloride] . < 50 nM

====

System: NCI-H526
Experiment: Cell response to LSD1 inhibition, SCLC cell line cultured 4 days (Example 5)
Type: cell-based, human
Settings: Homo sapiens, 96 h, NCI-H526, SubType V, read-out: EC50
Counter-ions that a name gives are not always drawn.
measured-parameter: pEC50
Entry type: numeric. Quantity: pEC50, the -log10 of concentration in molar units.

Report measured pEC50; entry is N[C@H]1CC[C@H](N[C@@H]2C[C@H]2c2ccccc2)CC1 [bis-hydrochloride] 9.20

====

System: DMS-114
Experiment: Cell response to LSD1 inhibition, SCLC cell line cultured 4 days (Example 5)
Type: cell-based, human
Details: Homo sapiens, 96 h, DMS-114, SubType V, read-out: Sensitivity to LSD1 inh.
pEC50: −log10 of the molar value. Where a name gives a salt, the structure may show the parent alone.
measured-parameter: pEC50

Could you please provide reported pEC50 for N[C@H]1CC[C@H](N[C@@H]2C[C@H]2c2ccccc2)CC1 [bis-hydrochloride] ? Thanks! ≤ 7.30

Sourced from patent US12564559B2
